- Test system: EKVX NSCLC
- test_name: NCI tumour cell line growth inhibition, 48 h
measured_parameter: TGI

Consider the reported TGI for these molecules:
{"columns": ["molecule", "TGI"],
 "data": [
  ["CCCCC1=NNC(=O)C1", "> 100 µM"],
  ["CN(Cc1cnc2nc(N)nc(N)c2n1)c1ccc(C(=O)NC(CCC(=O)NCCC(P(=O)(O)O)P(=O)(O)O)C(=O)O)cc1 (stereo not drawn)", "> 100 µM"],
  ["CCCCCCCCCCCCCC1=NC(C)(C)CN1C(C)C", "3.17 µM"],
  ["O=C(O)CC1NC(/C(=C/c2ccccc2)NC(=O)c2ccccc2)OC1=O (stereo not drawn)", "> 100 µM"],
  ["CCCCN(CCCC)CC(O)c1cc(-c2ccc(C(F)(F)F)cc2)nc(-c2ccc(C(F)(F)F)cc2)c1 (stereo not drawn)", "> 100 µM"]
]}

Record TGI per entry; entries follow.
1. CCCC(=O)n1[nH]c(=O)n(-c2ccc(Cl)cc2)c1=O
2. Nc1ccc(Oc2ccc(C34CC5CC6C3CC3CC4C(C5)C6(c4ccc(Oc5ccc(N)cc5)cc4)C3)cc2)cc1
3. COc1ccc(/C=C(/C(=O)N2CCN(c3ccccc3)CC2)c2cc(OC)c(OC)c(OC)c2)cc1O
4. CN(C)c1ccc(C(C=C2c3ccccc3Sc3ccccc32)=C(C#N)C#N)cc1
5. CCn1c(-c2nonc2N)nc2c(C#CC(C)(C)O)nc(OC[C@H](N)c3ccccc3)cc21
6. CCOC(=O)c1c(NC(=O)c2cccs2)sc2c1CCCC2

["> 100 µM", "> 77.8 µM", "> 100 µM", "> 100 µM", "18.1 µM", "> 100 µM"]

Record TGI per entry; entries follow.
1. CCOc1cc2c(OCc3ccccc3)cc3c4cc(OC)c(OC)cc4c[n+](C)c3c2cc1OC
2. Cc1cc(C)n2nc3nc(N)c(C#N)c(-c4ccccc4)c3c2n1

["> 100 µM", "> 100 µM"]

* * *

- System: SR leukemia
- test_name: NCI tumour cell line growth inhibition, 48 h
measured_parameter: TGI

Consider the reported TGI for these compounds:
{"columns": ["compound", "target_of_assay", "TGI"],
 "data": [
  ["Cc1cc([N+](=O)[O-])ccc1Nc1cccc(Cl)c1C", "SR leukemia", "40.4 µM"],
  ["CC(=O)N(C)c1ccc(Nc2cc(C)[nH]c3ccc4ncnc4c23)cc1", "SR leukemia", "23 µM"],
  ["O=c1[nH]c(=O)n(C2OC(CO)C(O)C2O)cc1NN=NCc1ccccc1 (centres undefined)", "SR leukemia", "> 100 µM"],
  ["OC1[C@@H]2[C@@H](O)[C@H](O)[C@@H](O)N2C[C@@H]1O (some centres undefined)", "SR leukemia", "> 43.6 µM"],
  ["CC(CCC=O)CCOCc1ccccc1 (centres undefined)", "SR leukemia", "> 80.7 µM"]
]}

Record TGI per entry; entries follow.
1. CC(C)(C)OC(=O)N1CCc2[nH][nH]c(=O)c2C1
2. O=C(NCC(=O)N1CCCC1C(=O)OC(=O)C1CCCN1C(=O)CNC(=O)OCc1ccccc1)OCc1ccccc1 (centres undefined)
3. COc1ccc(C(C)=O)cc1N1C(=O)C2C(C1=O)C1(c3ccccc3)C(=O)C2(c2ccccc2)C(c2ccc(C)cc2)=C1c1ccc(C)cc1 (centres undefined)
4. Cc1cc(C)nc(NC(=O)c2ccc(Br)s2)c1
5. CN(C)N=Nc1ccc(NC=O)cc1
6. C=C(c1nc2ccc(Cl)cc2[nH]c1=O)C(O)c1ccc(C(O)C(=O)c2nc3ccc(Cl)cc3[nH]c2=O)cc1 (centres undefined)
7. COCC1OC(Sc2ccccc2)C(O)C(OC)C1OC (centres undefined)
8. O=C(NC(Cc1c[nH]c2ccccc12)C(=O)Nc1ccc(Br)cc1)OCc1ccccc1 (centres undefined)

1: > 100 µM; 2: > 100 µM; 3: > 100 µM; 4: > 100 µM; 5: > 100 µM; 6: > 100 µM; 7: > 100 µM; 8: 47.4 µM
